molecular target: Glucocorticoid receptor (Homo sapiens); assay: GR-EFC Redistribution (AID 451); conditions: CHO-K1 GR-EFC translocation, beta-gal luminescence, 2 h; also: potency is read from the fitted curve at half-maximal effect
Active and inactive are the calls of the source. Calls follow the shape of the full dose curve.
So I've got a bunch of molecules here, and I need their Potency values.

Entry smiles	Potency
NCCC[C@@H](CC(=O)N[C@@H]1CCCC[C@H]1C(=O)N[C@H](CC(=O)N[C@@H](CCC(=O)O)CC(=O)O)Cc1ccccc1)NC(=O)C[C@H](Cc1ccccc1)NC(=O)[C@@H]1CNCC[C@H]1N	> 46 µM (inactive)
COc1ccc([C@@H]2OC[C@]3(COC(C)=O)[C@H](C)C=C(C)[C@@H]2[C@H]3C)cc1	> 46 µM (inactive)

Recorded Potency for CC(C)[C@@H](CC(=O)N[C@@H]1CCCC[C@H]1C(=O)N[C@H](CC(=O)N[C@@H](CCC(=O)O)CC(=O)O)Cc1ccccc1)NC(=O)C[C@H](Cc1c[nH]c2ccccc12)NC(=O)[C@@H]1CNCC[C@H]1N , please?
> 46 µM (inactive)
